tested on: E. coli; assay: Geometric mean of MICs, selectivity and targeting indices; type: cell-based; conditions: geometric mean of MICs against the 6 E. coli strains; >128 counted as 256 μM
Square brackets hold non-standard residues; d marks the D form. Peptide text beside a SMILES is read from it.
The entries below come with measured GM E. coli values attached.
assay_readout: GM E. coli

compound="CC[C@H](C)[C@H](NC(=O)CNC(=O)[C@H]1CCCN1C(=O)[C@H](CCCCN)NC(=O)[C@H](Cc1c[nH]c2ccccc12)NC(=O)[C@@H](NC(=O)[C@H](CCCCN)NC(=O)[C@@H](NC(=O)[C@@H](N)Cc1c[nH]c2ccccc12)[C@@H](C)CC)[C@@H](C)CC)C(=O)N[C@@H](CCCCN)C(=O)N[C@@H](CCCCN)C(=O)N[C@@H](Cc1c[nH]c2ccccc12)C(=O)N[C@H](C(=O)N[C@@H](CCCCN)C(=O)O)[C@@H](C)CC [Peptide 7] (H-WIKIWK[dP]GIKKWIK-OH; N-terminus and C-terminus assumed)" result="25.398 µM"
compound="CC[C@H](C)[C@H](NC(=O)CNC(=O)[C@H]1CCCN1C(=O)[C@H](CCCCN)NC(=O)[C@H](Cc1c[nH]c2ccccc12)NC(=O)[C@@H](NC(=O)[C@H](CCCCN)NC(=O)[C@H](CCCCN)NC(=O)[C@@H](N)Cc1c[nH]c2ccccc12)[C@@H](C)CC)C(=O)N[C@@H](CCCCN)C(=O)N[C@@H](CCCCN)C(=O)N[C@@H](Cc1c[nH]c2ccccc12)C(=O)N[C@H](C(=O)N[C@@H](CCCCN)C(=O)O)[C@@H](C)CC [Peptide 2] (H-WKKIWK[dP]GIKKWIK-OH; N-terminus and C-terminus assumed)" result="16.000 µM"
compound="CC[C@H](C)[C@H](NC(=O)CNC(=O)[C@H]1CCCN1C(=O)[C@H](CCCCN)NC(=O)[C@H](Cc1c[nH]c2ccccc12)NC(=O)[C@@H](NC(=O)[C@@H](N)CCCCN)[C@@H](C)CC)C(=O)N[C@@H](CCCCN)C(=O)N[C@@H](CCCCN)C(=O)N[C@@H](Cc1c[nH]c2ccccc12)C(=O)O [Peptide 1] (H-KIWK[dP]GIKKW-OH; N-terminus and C-terminus assumed)" result="256.000 µM"
compound="CC[C@H](C)[C@H](NC(=O)CNC(=O)[C@H]1CCCN1C(=O)[C@H](CCCCN)NC(=O)[C@H](Cc1c[nH]c2ccccc12)NC(=O)[C@@H](NC(=O)[C@H](CCCCN)NC(=O)[C@H](CCCCN)NC(=O)[C@@H](N)Cc1c[nH]c2ccccc12)[C@@H](C)CC)C(=O)N[C@@H](CCCCN)C(=O)N[C@@H](CCCCN)C(=O)N[C@@H](Cc1c[nH]c2ccccc12)C(=O)N[C@@H](CCCCN)C(=O)N[C@@H](CCCCN)C(=O)O [Peptide 8] (H-WKKIWK[dP]GIKKWKK-OH; N-terminus and C-terminus assumed)" result="20.159 µM"

---

test system: E. coli ATCC25922; assay: Salt, serum, acid and alkaline sensitivity; format: cell-based; conditions: in presence of 4.5 mM KCl (final)
Square brackets hold non-standard residues; d marks the D form. Peptide text beside a SMILES is read from it.
The entries below come with measured MIC, KCl values attached.
assay_readout: MIC, KCl (µM)

compound="CC[C@H](C)[C@H](NC(=O)CNC(=O)[C@H]1CCCN1C(=O)[C@H](CCCCN)NC(=O)[C@H](Cc1c[nH]c2ccccc12)NC(=O)[C@@H](NC(=O)[C@H](CCCCN)NC(=O)[C@@H](NC(=O)[C@@H](N)Cc1c[nH]c2ccccc12)[C@@H](C)CC)[C@@H](C)CC)C(=O)N[C@@H](CCCCN)C(=O)N[C@@H](CCCCN)C(=O)N[C@@H](Cc1c[nH]c2ccccc12)C(=O)N[C@@H](CCCCN)C(=O)N[C@@H](CCCCN)C(=O)O [Peptide 9] (H-WIKIWK[dP]GIKKWKK-OH; N-terminus and C-terminus assumed)" number=32
compound="CC[C@H](C)[C@H](NC(=O)CNC(=O)[C@H]1CCCN1C(=O)[C@H](CCCCN)NC(=O)[C@H](Cc1c[nH]c2ccccc12)NC(=O)[C@@H](NC(=O)[C@H](CCCCN)NC(=O)[C@@H](NC(=O)[C@@H](N)Cc1c[nH]c2ccccc12)[C@@H](C)CC)[C@@H](C)CC)C(=O)N[C@@H](CCCCN)C(=O)N[C@@H](CCCCN)C(=O)N[C@@H](Cc1c[nH]c2ccccc12)C(=O)N[C@H](C(=O)N[C@@H](CCCCN)C(=O)O)[C@@H](C)CC [Peptide 7] (H-WIKIWK[dP]GIKKWIK-OH; N-terminus and C-terminus assumed)" number=32

---

The entries below come with measured MIC, PH=4 values attached.
tested on: E. coli ATCC25922; assay: Salt, serum, acid and alkaline sensitivity; type: cell-based; conditions: peptide incubated at pH=4 for 4 h prior to MIC determination
Square brackets hold non-standard residues; d marks the D form. Peptide text beside a SMILES is read from it.
assay_readout: MIC, PH=4 (µM)

compound="CC[C@H](C)[C@H](NC(=O)CNC(=O)[C@H]1CCCN1C(=O)[C@H](CCCCN)NC(=O)[C@H](Cc1c[nH]c2ccccc12)NC(=O)[C@@H](NC(=O)[C@H](CCCCN)NC(=O)[C@@H](NC(=O)[C@@H](N)Cc1c[nH]c2ccccc12)[C@@H](C)CC)[C@@H](C)CC)C(=O)N[C@@H](CCCCN)C(=O)N[C@@H](CCCCN)C(=O)N[C@@H](Cc1c[nH]c2ccccc12)C(=O)N[C@H](C(=O)N[C@@H](CCCCN)C(=O)O)[C@@H](C)CC [Peptide 7] (H-WIKIWK[dP]GIKKWIK-OH; N-terminus and C-terminus assumed)" assay_readout="MIC, PH=4" readout_units=µM qualifier_sign== number=32
compound="CC[C@H](C)[C@H](NC(=O)CNC(=O)[C@H]1CCCN1C(=O)[C@H](CCCCN)NC(=O)[C@H](Cc1c[nH]c2ccccc12)NC(=O)[C@@H](NC(=O)[C@@H](N)CCCCN)[C@@H](C)CC)C(=O)N[C@@H](CCCCN)C(=O)N[C@@H](CCCCN)C(=O)N[C@@H](Cc1c[nH]c2ccccc12)C(=O)O [Peptide 1] (H-KIWK[dP]GIKKW-OH; N-terminus and C-terminus assumed)" assay_readout="MIC, PH=4" readout_units=µM qualifier_sign=> number=64
compound="CC[C@H](C)[C@H](NC(=O)CNC(=O)[C@H]1CCCN1C(=O)[C@H](CCCCN)NC(=O)[C@H](Cc1c[nH]c2ccccc12)NC(=O)[C@@H](NC(=O)[C@H](CCCCN)NC(=O)[C@@H](NC(=O)[C@@H](N)Cc1c[nH]c2ccccc12)[C@@H](C)CC)[C@@H](C)CC)C(=O)N[C@@H](CCCCN)C(=O)N[C@@H](CCCCN)C(=O)N[C@@H](Cc1c[nH]c2ccccc12)C(=O)N[C@@H](CCCCN)C(=O)N[C@@H](CCCCN)C(=O)O [Peptide 9] (H-WIKIWK[dP]GIKKWKK-OH; N-terminus and C-terminus assumed)" assay_readout="MIC, PH=4" readout_units=µM qualifier_sign== number=32
compound="CC[C@H](C)[C@H](NC(=O)CNC(=O)[C@H]1CCCN1C(=O)[C@H](CCCCN)NC(=O)[C@H](Cc1c[nH]c2ccccc12)NC(=O)[C@@H](NC(=O)[C@H](CCCCN)NC(=O)[C@H](CCCCN)NC(=O)[C@@H](N)Cc1c[nH]c2ccccc12)[C@@H](C)CC)C(=O)N[C@@H](CCCCN)C(=O)N[C@@H](CCCCN)C(=O)N[C@@H](Cc1c[nH]c2ccccc12)C(=O)N[C@H](C(=O)N[C@@H](CCCCN)C(=O)O)[C@@H](C)CC [Peptide 2] (H-WKKIWK[dP]GIKKWIK-OH; N-terminus and C-terminus assumed)" assay_readout="MIC, PH=4" readout_units=µM qualifier_sign== number=16
compound="CC[C@H](C)[C@H](NC(=O)CNC(=O)[C@H]1CCCN1C(=O)[C@H](CCCCN)NC(=O)[C@H](Cc1c[nH]c2ccccc12)NC(=O)[C@@H](NC(=O)[C@H](CCCCN)NC(=O)[C@H](CCCCN)NC(=O)[C@@H](N)Cc1c[nH]c2ccccc12)[C@@H](C)CC)C(=O)N[C@@H](CCCCN)C(=O)N[C@@H](CCCCN)C(=O)N[C@@H](Cc1c[nH]c2ccccc12)C(=O)N[C@@H](CCCCN)C(=O)N[C@@H](CCCCN)C(=O)O [Peptide 8] (H-WKKIWK[dP]GIKKWKK-OH; N-terminus and C-terminus assumed)" assay_readout="MIC, PH=4" readout_units=µM qualifier_sign== number=32

---

test system: E. coli ATCC25922; assay: Salt, serum, acid and alkaline sensitivity; assay type: cell-based; settings: in presence of 1 mM MgCl2
Square brackets hold non-standard residues; d marks the D form. Peptide text beside a SMILES is read from it.
The entries below come with measured MIC, MgCl2 values attached.
assay_readout: MIC, MgCl2 (µM)

compound="CC[C@H](C)[C@H](NC(=O)CNC(=O)[C@H]1CCCN1C(=O)[C@H](CCCCN)NC(=O)[C@H](Cc1c[nH]c2ccccc12)NC(=O)[C@@H](NC(=O)[C@H](CCCCN)NC(=O)[C@@H](NC(=O)[C@@H](N)Cc1c[nH]c2ccccc12)[C@@H](C)CC)[C@@H](C)CC)C(=O)N[C@@H](CCCCN)C(=O)N[C@@H](CCCCN)C(=O)N[C@@H](Cc1c[nH]c2ccccc12)C(=O)N[C@H](C(=O)N[C@@H](CCCCN)C(=O)O)[C@@H](C)CC [Peptide 7] (H-WIKIWK[dP]GIKKWIK-OH; N-terminus and C-terminus assumed)" qualifier_sign=> number=64
compound="CC[C@H](C)[C@H](NC(=O)CNC(=O)[C@H]1CCCN1C(=O)[C@H](CCCCN)NC(=O)[C@H](Cc1c[nH]c2ccccc12)NC(=O)[C@@H](NC(=O)[C@@H](N)CCCCN)[C@@H](C)CC)C(=O)N[C@@H](CCCCN)C(=O)N[C@@H](CCCCN)C(=O)N[C@@H](Cc1c[nH]c2ccccc12)C(=O)O [Peptide 1] (H-KIWK[dP]GIKKW-OH; N-terminus and C-terminus assumed)" qualifier_sign=> number=64
compound="CC[C@H](C)[C@H](NC(=O)CNC(=O)[C@H]1CCCN1C(=O)[C@H](CCCCN)NC(=O)[C@H](Cc1c[nH]c2ccccc12)NC(=O)[C@@H](NC(=O)[C@H](CCCCN)NC(=O)[C@H](CCCCN)NC(=O)[C@@H](N)Cc1c[nH]c2ccccc12)[C@@H](C)CC)C(=O)N[C@@H](CCCCN)C(=O)N[C@@H](CCCCN)C(=O)N[C@@H](Cc1c[nH]c2ccccc12)C(=O)N[C@@H](CCCCN)C(=O)N[C@@H](CCCCN)C(=O)O [Peptide 8] (H-WKKIWK[dP]GIKKWKK-OH; N-terminus and C-terminus assumed)" qualifier_sign== number=32
compound="CC[C@H](C)[C@H](NC(=O)CNC(=O)[C@H]1CCCN1C(=O)[C@H](CCCCN)NC(=O)[C@H](Cc1c[nH]c2ccccc12)NC(=O)[C@@H](NC(=O)[C@H](CCCCN)NC(=O)[C@H](CCCCN)NC(=O)[C@@H](N)Cc1c[nH]c2ccccc12)[C@@H](C)CC)C(=O)N[C@@H](CCCCN)C(=O)N[C@@H](CCCCN)C(=O)N[C@@H](Cc1c[nH]c2ccccc12)C(=O)N[C@H](C(=O)N[C@@H](CCCCN)C(=O)O)[C@@H](C)CC [Peptide 2] (H-WKKIWK[dP]GIKKWIK-OH; N-terminus and C-terminus assumed)" qualifier_sign== number=32
compound="CC[C@H](C)[C@H](NC(=O)CNC(=O)[C@H]1CCCN1C(=O)[C@H](CCCCN)NC(=O)[C@H](Cc1c[nH]c2ccccc12)NC(=O)[C@@H](NC(=O)[C@H](CCCCN)NC(=O)[C@@H](NC(=O)[C@@H](N)Cc1c[nH]c2ccccc12)[C@@H](C)CC)[C@@H](C)CC)C(=O)N[C@@H](CCCCN)C(=O)N[C@@H](CCCCN)C(=O)N[C@@H](Cc1c[nH]c2ccccc12)C(=O)N[C@@H](CCCCN)C(=O)N[C@@H](CCCCN)C(=O)O [Peptide 9] (H-WIKIWK[dP]GIKKWKK-OH; N-terminus and C-terminus assumed)" qualifier_sign== number=64
